Biological target: T1, human MSLN-R3-his protein (human, UniProt Q13421 487-598)
T1 construct: it is put last here; also called human MSLN-R3 protein; hMSLN-R3-his; not shown: His tag
T1 sequence (Q13421 495-606): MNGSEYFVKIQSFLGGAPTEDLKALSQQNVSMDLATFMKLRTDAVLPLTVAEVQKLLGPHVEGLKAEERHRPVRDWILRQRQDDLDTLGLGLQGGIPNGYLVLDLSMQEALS
Test: ELISA on coated antigen, antibody 0.0002 nM
measuredAttribute: OD450 (OD)
// units = OD; emit number, no label

-- ask Tell me the measured OD450 of S009-F7.44.20 (antibody, human IgG1, kappa, V domains shown, Human-murine chimeric antibody, human IgG1 heavy and kappa light constant regions) VH: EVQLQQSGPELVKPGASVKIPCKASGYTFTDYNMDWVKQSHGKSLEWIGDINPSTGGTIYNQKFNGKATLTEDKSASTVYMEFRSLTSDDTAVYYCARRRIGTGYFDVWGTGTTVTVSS VL: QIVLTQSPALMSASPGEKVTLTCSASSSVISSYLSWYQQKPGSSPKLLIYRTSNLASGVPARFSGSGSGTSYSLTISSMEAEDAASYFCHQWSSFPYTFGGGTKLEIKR , please.
-- reply 0.1

-- ask # iterate: S009-F7.53.2 (antibody, human IgG1, kappa, V domains shown, Human-murine chimeric antibody, human IgG1 heavy and kappa light constant regions) VH: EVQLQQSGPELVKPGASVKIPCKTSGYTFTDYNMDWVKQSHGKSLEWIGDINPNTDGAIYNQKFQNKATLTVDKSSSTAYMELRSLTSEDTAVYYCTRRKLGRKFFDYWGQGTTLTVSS VL: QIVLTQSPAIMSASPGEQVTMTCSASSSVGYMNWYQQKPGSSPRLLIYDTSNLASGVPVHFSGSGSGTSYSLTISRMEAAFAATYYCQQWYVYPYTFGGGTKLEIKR
-- reply 0.05

-- ask # iterate: S009-F7.25.19 (antibody, human IgG1, kappa, V domains shown, Human-murine chimeric antibody, human IgG1 heavy and kappa light constant regions) VH: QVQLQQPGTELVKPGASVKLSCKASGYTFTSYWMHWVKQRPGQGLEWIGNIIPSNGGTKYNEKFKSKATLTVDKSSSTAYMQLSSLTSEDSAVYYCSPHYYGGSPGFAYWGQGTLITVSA VL: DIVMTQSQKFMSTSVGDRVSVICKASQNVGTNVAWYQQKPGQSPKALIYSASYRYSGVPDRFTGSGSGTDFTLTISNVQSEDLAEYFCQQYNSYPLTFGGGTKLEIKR
-- reply 0.3
